Ref: PubChem BioAssay AID2060489

# Test system: 922993-354-T-J3-PDC complex spheroids, viability;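 further: spheroids exposed to compounds for seven days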
# ASSAY: Anticancer human tumor 922993-354-T-J3-PDC patient-derived endometrial carcinoma cell line growth inhibition [GQUAD]
# CONDITIONS: second compound 0.1 µM; first compound 0.00316 µM; active compounds read low
Lab note: anything with viability, T/C below 90% is marked Yes; values at 90% or higher are marked No.

Below 90% on viability, T/C? Entry CC[C@@]1(O)C(=O)OCc2c1cc1n(c2=O)Cc2cc3c(CN(C)C)c(O)ccc3nc2-1 + Cc1[nH]c2ccc(F)cc2c1-c1nc2c3cccnc3c3ncccc3c2[nH]1
No

Then Cn1ncnc1[C@H]1c2n[nH]c(=O)c3cc(F)cc(c23)N[C@@H]1c1ccc(F)cc1 + Cc1[nH]c2ccc(F)cc2c1-c1nc2c3cccnc3c3ncccc3c2[nH]1 ?
Yes

Let us now turn to Cn1ncnc1[C@H]1c2n[nH]c(=O)c3cc(F)cc(c23)N[C@@H]1c1ccc(F)cc1 + Cc1cnc(CNC(=O)c2c(=O)c3ccc(N4CCCN(C)CC4)nc3n3c2sc2ccccc23)cn1
Yes

Please do the same for Cn1ncnc1[C@H]1c2n[nH]c(=O)c3cc(F)cc(c23)N[C@@H]1c1ccc(F)cc1 + CN(C)c1ccc(Nc2c3ccc(NC(=O)CCN4CCCC4)cc3nc3cc(NC(=O)CCN4CCCC4)ccc23)cc1 as well.
No

Ok, now CC[C@@]1(O)C(=O)OCc2c1cc1n(c2=O)Cc2cc3c(CN(C)C)c(O)ccc3nc2-1 + Cc1cnc(CNC(=O)c2c(=O)c3ccc(N4CCCN(C)CC4)nc3n3c2sc2ccccc23)cn1
Yes

Would you kindly repeat that for CCc1c2c(nc3ccc(O)cc13)-c1cc3c(c(=O)n1C2)COC(=O)[C@]3(O)CC + Cc1[nH]c2ccc(F)cc2c1-c1nc2c3cccnc3c3ncccc3c2[nH]1 ?
Yes

And Cc1[nH]c2ccccc2c1CCNCc1ccc(/C=C/C(=O)NO)cc1 + Cc1[nH]c2ccc(F)cc2c1-c1nc2c3cccnc3c3ncccc3c2[nH]1 ?
No

Moving on to CC[C@@]1(O)C(=O)OCc2c1cc1n(c2=O)Cc2cc3c(CN(C)C)c(O)ccc3nc2-1 + CN(C)c1ccc(Nc2c3ccc(NC(=O)CCN4CCCC4)cc3nc3cc(NC(=O)CCN4CCCC4)ccc23)cc1
No

Please answer likewise for CCc1c2c(nc3ccc(O)cc13)-c1cc3c(c(=O)n1C2)COC(=O)[C@]3(O)CC + Cc1cnc(CNC(=O)c2c(=O)c3ccc(N4CCCN(C)CC4)nc3n3c2sc2ccccc23)cn1
Yes

What do you get for Cc1[nH]c2ccccc2c1CCNCc1ccc(/C=C/C(=O)NO)cc1 + Cc1cnc(CNC(=O)c2c(=O)c3ccc(N4CCCN(C)CC4)nc3n3c2sc2ccccc23)cn1 ?
Yes

Can you handle Cc1[nH]c2ccccc2c1CCNCc1ccc(/C=C/C(=O)NO)cc1 + CN(C)c1ccc(Nc2c3ccc(NC(=O)CCN4CCCC4)cc3nc3cc(NC(=O)CCN4CCCC4)ccc23)cc1 next?
Yes

Same thing, different molecule: CCc1c2c(nc3ccc(O)cc13)-c1cc3c(c(=O)n1C2)COC(=O)[C@]3(O)CC + CN(C)c1ccc(Nc2c3ccc(NC(=O)CCN4CCCC4)cc3nc3cc(NC(=O)CCN4CCCC4)ccc23)cc1
No
